# System: CDS-ZH002 direct (CIC-DUX4 sarcoma cells right after isolation)
# Assay Name: differential drug sensitivity score (dDSS) relative to sarcoma reference cohort mean DSS (DSS units (0-100 scale difference)); higher = more selective sensitivity than reference sarcomas
# Protocol Conditions: exposure time: 72 h; concentration range: 10-10000 nM
Where differential drug sensitivity score equals or exceeds -0.6, the correct label is 1; where it does not, the label is -1.

Below are worked cases with known answers.
N#CCNC(=O)c1ccc(-c2ccnc(Nc3ccc(N4CCOCC4)cc3)n2)cc1 = -1
Cc1cnc(Nc2ccc(OCCN3CCCC3)cc2)nc1Nc1cccc(S(=O)(=O)NC(C)(C)C)c1 = -1

Item CC[C@]1(O)C[C@@H]2CN(CCc3c([nH]c4ccccc34)[C@@](C(=O)OC)(c3cc4c(cc3OC)N(C)[C@H]3[C@@](O)(C(=O)OC)[C@H](OC(C)=O)[C@]5(CC)C=CCN6CC[C@]43[C@@H]65)C2)C1 with differential drug sensitivity score of -0.6 or above? 1

Item CC(C)NC[C@@H](C(=O)N1CCN(c2ncnc3c2[C@H](C)C[C@H]3O)CC1)c1ccc(Cl)cc1 with differential drug sensitivity score of -0.6 or above? -1

Item C[C@@H](Oc1cc(-c2cnn(C3CCNCC3)c2)cnc1N)c1c(Cl)ccc(F)c1Cl with differential drug sensitivity score of -0.6 or above? -1

Item COc1cc2c(Nc3ccc(NC(=O)c4ccccc4)cc3)ncnc2cc1OCCCN1CCOCC1 with differential drug sensitivity score of -0.6 or above? 1

###

# Tested on: CDS-ZH002 direct
# Assay Name: differential drug sensitivity score (dDSS) relative to sarcoma reference cohort mean DSS (DSS units (0-100 scale difference)); higher = more selective sensitivity than reference sarcomas
# Protocol Conditions: exposure time: 72 h; concentration range: 10-10000 nM
Readout Name: differential drug sensitivity score

Example results:
FC(F)(F)c1ccc(CNc2ccc(Cc3c[nH]c4ncc(Cl)cc34)cn2)cn1 = 5.7
N#Cc1ccnc(N2C(=O)CC[C@H]2C(=O)N(c2cncc(F)c2)[C@H](C(=O)NC2CC(F)(F)C2)c2ccccc2Cl)c1 = -2.1
CCC(=O)N1CCN(c2ccc(-n3c(=O)ccc4cnc5ccc(-c6cnc7ccccc7c6)cc5c43)cc2C(F)(F)F)CC1 = -8.4

Please turn your attention to the following entry.
I have this molecule here, Cc1[nH]c2ccccc2c1CCNCc1ccc(/C=C/C(=O)NO)cc1 , and I need its recorded differential drug sensitivity score. 2

###

# Tested on: CDS-ZH002 direct
# Assay Name: differential drug sensitivity score (dDSS) relative to sarcoma reference cohort mean DSS (DSS units (0-100 scale difference)); higher = more selective sensitivity than reference sarcomas
# Protocol Conditions: exposure time: 72 h; concentration range: 10-10000 nM
Where differential drug sensitivity score equals or exceeds 0.4, the correct label is t; where it does not, the label is f.

Below are worked cases with known answers.
CN(C)C/C=C/C(=O)Nc1ccc(C(=O)Nc2cccc(Nc3ncc(Cl)c(-c4c[nH]c5ccccc45)n3)c2)cc1 = t
CS(=O)(=O)CCNCc1ccc(-c2ccc3ncnc(Nc4ccc(OCc5cccc(F)c5)c(Cl)c4)c3c2)o1 = f
CC(C)C[C@H](NC(=O)[C@H](CCc1ccccc1)NC(=O)CN1CCOCC1)C(=O)N[C@@H](Cc1ccccc1)C(=O)N[C@@H](CC(C)C)C(=O)[C@@]1(C)CO1 = t
COc1cc2nc(N3CCCN(C)CC3)nc(NC3CCN(Cc4ccccc4)CC3)c2cc1OC = t
Nc1ccn([C@@H]2O[C@H](CO)[C@@H](O)[C@@H]2O)c(=O)n1 = f

Item CN[C@@H](C)C(=O)N[C@H](C(=O)N1CCC[C@H]1C(=O)Nc1snnc1-c1ccccc1)C1CCCCC1 with differential drug sensitivity score of 0.4 or above? t

Item CC(C)C[C@H](NC(=O)[C@H](Cc1ccccc1)NC(=O)c1cnccn1)B(O)O with differential drug sensitivity score of 0.4 or above? t
